# SYSTEM_NAME: IGF-1R Ba/F3 (Homo sapiens, UniProt P08069)
# Construct: fused on or other part: TEL- (or BCR-) IGF-1R in Ba/F3: the kinase part holds the site
# Sequence (P08069 999-1274 limits assumed): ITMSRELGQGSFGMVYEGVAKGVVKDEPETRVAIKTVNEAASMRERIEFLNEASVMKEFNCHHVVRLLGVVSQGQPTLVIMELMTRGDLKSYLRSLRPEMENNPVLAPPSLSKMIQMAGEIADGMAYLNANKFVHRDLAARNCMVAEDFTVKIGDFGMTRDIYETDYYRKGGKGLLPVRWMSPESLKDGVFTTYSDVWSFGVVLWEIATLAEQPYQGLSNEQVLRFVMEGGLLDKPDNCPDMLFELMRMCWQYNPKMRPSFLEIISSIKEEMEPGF
# PROTOCOL_DETAILS: Ba/F3 Cell Viability Inhibition Assay (IGF-1R Ba/F3)
# ASSAY_CONTEXT: Tel-TK transformed Ba/F3 cells, 48 hours, Britelite luminescence
pIC50: −log10 of the molar value.
MEASURED_QUANTITY: pIC50

MOLECULE | MEASURED_QUANTITY | VAL
Cc1cc(Nc2nc(Nc3cc(C)c(C4CCCCN4)cc3C)ncc2Cl)n[nH]1 (stereo not shown) [Compound 14] | pIC50 | 7.80
CNC(=O)CN1CCC(c2cc(F)c(Nc3ncc(Cl)c(Nc4cc(C(F)(F)F)[nH]n4)n3)cc2C)CC1 [Compound 172] | pIC50 | 7.16
Cc1cc(Nc2nc(Nc3cc(C)c(C4CCN(S(=O)(=O)C5CC5)CC4)cc3F)ncc2Cl)n[nH]1 [Compound 64] | pIC50 | 7.23
Cc1cc(Nc2nc(Nc3cc(C)c(C4CCN(CCC(F)(F)F)CC4)cc3F)ncc2Cl)n[nH]1 [Compound 24] | pIC50 | 7.07
Cc1cc(Nc2nc(Nc3cc(C)c(C4CCN(C(=O)CN5CCOCC5)CC4)cc3F)ncc2Cl)n[nH]1 [Compound 97] | pIC50 | 7.70
CCC(C(=O)NC)N1CCC(c2cc(C)c(Nc3ncc(Cl)c(Nc4cc(C)[nH]n4)n3)cc2C)CC1 (stereo not shown) [Compound 189] | pIC50 | 8.15
Cc1cc(Nc2nc(Nc3cc(C)c(C4CCCN(CC(N)=O)C4)cc3C)ncc2Cl)n[nH]1 (stereo not shown) [Compound 41] | pIC50 | 7.59
